test: ATG_NRF2_ARE_CIS: Attagene CIS-FACTORIAL HepG2 Assay for human Nuclear Factor Erythroid 2 Related Factor 2 (NFR2) response to Antioxidant Response Elements (ARE) (AID 2282992)
experimental conditions: HepG2 Attagene ARE/NRF2 reporter, transcription factor activity; actives raise or lower the signal
Calls of active or inactive are those of the source. The calls were made as follows: active = hit-call score of the fitted dose curve at least 0.9, where 1 is the maximum; inactive = score below 0.9.
Classes used: 1 for active, -1 for inactive

{"molecule": "CCCc1ccc(O)c(OC)c1", "class": 1}
{"molecule": "COc1cc(O)c(C(=O)c2ccccc2)cc1S(=O)(=O)O", "class": -1}
{"molecule": "C=CC(C)(O)CC/C=C(\\C)CC (stereo unspecified)", "class": -1}
{"molecule": "CCCCOCCOCCOC(C)=O", "class": -1}
{"molecule": "CCCCc1ccc(Cl)cc1", "class": -1}
{"molecule": "c1ccc2sc(SSN3CCOCC3)nc2c1", "class": 1}
{"molecule": "CCCCCCCC(=O)OCC(COC(=O)CCCCCCC)OC(=O)CCCCCCC", "class": -1}
{"molecule": "CC(=O)OC1CCCCC1", "class": -1}
{"molecule": "CC(C)CO", "class": -1}
{"molecule": "O=c1c(O)c(-c2ccc(O)cc2O)oc2cc(O)cc(O)c12", "class": -1}
{"molecule": "CCC(C)C(=O)OC (stereo unspecified)", "class": -1}
{"molecule": "O=C(O)C(F)(F)C(F)(F)C(F)(F)C(F)(F)C(=O)O", "class": -1}
{"molecule": "CC1=CCC(C(C)C)C=C1 (stereo unspecified)", "class": 1}
{"molecule": "CCCCC(C=O)CC (stereo unspecified)", "class": -1}
{"molecule": "CC(C)(C)NC(=O)[C@H]1CC[C@H]2[C@@H]3CC[C@H]4NC(=O)C=C[C@]4(C)[C@H]3CC[C@]12C", "class": 1}
{"molecule": "COC(=O)C=Cc1ccccc1", "class": -1}
{"molecule": "C=CCCCCCCCCO", "class": -1}
{"molecule": "CCOc1ccc(NC(N)=O)cc1", "class": -1}
{"molecule": "CCCCCCCCCC[N+](C)(CCCCCCCCCC)CCC[Si](OC)(OC)OC", "class": 1}
{"molecule": "N#CC1(N)CCCCC1", "class": -1}
{"molecule": "CC1=C(O)C(=O)C(C)O1 (stereo unspecified)", "class": -1}

###

test: ATG_M_32_CIS: Attagene CIS-FACTORIAL HepG2 Assay for M32 Transcription Factor (Internal Marker) (AID 2282949);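 also: background control marker of the multiplexed CIS panel rather than a real target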
experimental conditions: HepG2 Attagene cis-factorial M32 reporter, mRNA; actives raise or lower the signal
Calls of active or inactive are those of the source. The calls were made as follows: active = hit-call score of the fitted dose curve at least 0.9, where 1 is the maximum; inactive = score below 0.9.
Classes used: YES = active, NO = inactive

{"compound": "CCOC(=O)OC(=O)OCC", "class": "NO"}
{"compound": "COC(=O)c1ccc(C(=O)OC)c(C(=O)OC)c1", "class": "NO"}
{"compound": "CC(C)c1ccc(O)c(C(C)C)c1", "class": "NO"}
{"compound": "CCCCC(C=O)CC (stereo not drawn)", "class": "NO"}
{"compound": "COc1ccc(C(=O)/C(Br)=C\\C(=O)O)cc1", "class": "NO"}
{"compound": "CCCCNS(=O)(=O)c1ccc(C)cc1", "class": "NO"}
{"compound": "CC(C)(O)Cc1ccccc1", "class": "NO"}
{"compound": "CC(C)(CO)C(O)C(=O)NCCCO (stereo not drawn)", "class": "NO"}
{"compound": "CCCCCC[C@@H](O)C/C=C\\CCCCCCCC(=O)OCC(O)CO (stereo partly drawn)", "class": "YES"}
{"compound": "CCCCC/C=C\\C/C=C\\CCCCCCCC(=O)O", "class": "NO"}
{"compound": "CC(C=O)c1ccccc1 (stereo not drawn)", "class": "NO"}
{"compound": "c1ccc2c(c1)[nH]c1ccccc12", "class": "NO"}
{"compound": "CC(=O)c1ccc(S(=O)(=O)NC(=O)NC2CCCCC2)cc1", "class": "NO"}

###

assayed target: Aryl hydrocarbon receptor (Homo sapiens) (UniProt P35869)
Sequence (P35869 whole entry, looked up): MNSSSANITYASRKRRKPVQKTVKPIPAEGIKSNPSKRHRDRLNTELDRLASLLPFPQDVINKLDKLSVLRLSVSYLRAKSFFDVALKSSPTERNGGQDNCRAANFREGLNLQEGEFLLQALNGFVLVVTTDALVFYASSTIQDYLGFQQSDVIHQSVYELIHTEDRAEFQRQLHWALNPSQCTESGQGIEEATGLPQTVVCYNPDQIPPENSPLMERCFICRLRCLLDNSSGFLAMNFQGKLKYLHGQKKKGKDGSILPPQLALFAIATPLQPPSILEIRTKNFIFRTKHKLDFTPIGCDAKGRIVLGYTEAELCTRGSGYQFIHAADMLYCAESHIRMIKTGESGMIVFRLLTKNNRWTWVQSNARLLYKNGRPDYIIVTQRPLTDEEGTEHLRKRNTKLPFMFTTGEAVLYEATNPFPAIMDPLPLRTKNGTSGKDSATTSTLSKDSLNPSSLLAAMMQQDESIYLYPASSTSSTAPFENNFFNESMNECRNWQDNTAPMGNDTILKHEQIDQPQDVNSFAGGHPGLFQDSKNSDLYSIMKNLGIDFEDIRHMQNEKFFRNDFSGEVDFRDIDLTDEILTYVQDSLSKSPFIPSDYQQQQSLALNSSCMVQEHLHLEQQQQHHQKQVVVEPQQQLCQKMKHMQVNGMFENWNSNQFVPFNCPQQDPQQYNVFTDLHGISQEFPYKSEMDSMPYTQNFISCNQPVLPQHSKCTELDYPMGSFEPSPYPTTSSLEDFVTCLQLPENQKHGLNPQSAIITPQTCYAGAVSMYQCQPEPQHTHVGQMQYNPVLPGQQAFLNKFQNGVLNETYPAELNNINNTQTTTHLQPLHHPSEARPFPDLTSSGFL
test: ATG_Ahr_CIS: Attagene CIS-FACTORIAL HepG2 Assay for human Aryl Hydrocarbon Receptor (Ahr) (AID 2282930)
experimental conditions: HepG2 AhR cis-factorial reporter transcription; actives raise or lower the signal
The source made the active and inactive calls. Rule for the calls: active = hit-call score of the fitted dose curve at least 0.9, where 1 is the maximum; inactive = score below 0.9.
Classes used: class 1 for active, class 0 for inactive

{"compound": "CC/C=C\\C/C=C\\C/C=C\\CCCCCCCC(=O)OC", "class": "class 1"}
{"compound": "c1ccc2cnccc2c1", "class": "class 1"}
{"compound": "C=C(C)C1CC=C(C)CC1 (centres undefined)", "class": "class 0"}
{"compound": "CC(=O)OC/C=C(/C)CCC=C(C)C", "class": "class 0"}
{"compound": "CCC(=O)C1CC(C(C)C)CC=C1C (centres undefined)", "class": "class 0"}
{"compound": "CCOC(=O)/C=C\\C(=O)OCC", "class": "class 0"}
{"compound": "Cc1ccc2c(c1)CCCN2", "class": "class 1"}
{"compound": "CC(C)CO", "class": "class 0"}
{"compound": "Nc1ncnc2nc[nH]c12", "class": "class 0"}
{"compound": "O=C1CCCCCCCCCCC1", "class": "class 0"}
{"compound": "O=C(O)c1cc(O)c2ccccc2c1O", "class": "class 1"}
{"compound": "CC(C)c1cc(C(C)C)cc(C(C)C)c1", "class": "class 0"}
{"compound": "CCCCCOC(=O)CCCCC", "class": "class 0"}
{"compound": "Nc1cccc(N)n1", "class": "class 1"}

###

test: ACEA_ER_80hr: ACEA Biosciences xCELLigence Real-Time Cell Analysis on Estrogen Receptor Agonism for Proliferation (AID 2282667)
experimental conditions: T47D proliferation, impedance (xCELLigence), 80 h
Records with an inconclusive call do not appear. Active and inactive are the calls of the source. The calls were made as follows: active = hit-call score of the fitted dose curve at least 0.9, where 1 is the maximum; inconclusive = response in the unintended direction; inactive = score below 0.9.
Classes used: 1 for active, 0 for inactive

{"compound": "CCOC(=O)OC(=O)OCC", "class": 0}
{"compound": "COc1cc(C)ccc1O", "class": 0}
{"compound": "Cc1ccccc1CCO", "class": 0}
{"compound": "N=C1C=CC(=C(c2ccc(N)cc2)c2ccc(N)cc2)C=C1", "class": 0}
{"compound": "CCC(C)C(=O)OC (centres undefined)", "class": 1}
{"compound": "CC(C)c1ccc2ncccc2c1", "class": 0}
{"compound": "CCCCOCC(C)O (centres undefined)", "class": 1}
{"compound": "Cc1c(Cl)cccc1Cl", "class": 0}
{"compound": "Cn1cccc1", "class": 0}
{"compound": "C=CC(=O)OCCCCCCCCCC", "class": 0}
{"compound": "CC(C)=NNC(N)=S", "class": 0}
{"compound": "CCCCCC(=O)OCC", "class": 0}
{"compound": "CCCCCCCCCCCC(C)=O", "class": 0}
{"compound": "O=C(Oc1ccccc1)c1ccccc1C(=O)Oc1ccccc1", "class": 0}
{"compound": "C=CC(=O)OCCCCCCOC(=O)C=C", "class": 1}
{"compound": "CC(C)c1cccc(C(C)C)c1N", "class": 0}
{"compound": "C1CNCCN1", "class": 0}
{"compound": "C=CC(=O)O[C@H]1C[C@@H]2CC[C@@]1(C)C2(C)C", "class": 0}
{"compound": "CCCCCCC=O", "class": 1}
{"compound": "O=C(O)/C=C/c1ccccc1", "class": 1}
{"compound": "O=C(Nc1ccccc1)c1cc(Cl)ccc1O", "class": 0}
{"compound": "CCOC(=O)c1ccc(C)cc1", "class": 0}
{"compound": "c1ccc2cnccc2c1", "class": 0}
{"compound": "CCCCCCCCCCCCCC(=O)OC(C)C", "class": 0}

###

test: ATG_NRF2_ARE_CIS: Attagene CIS-FACTORIAL HepG2 Assay for human Nuclear Factor Erythroid 2 Related Factor 2 (NFR2) response to Antioxidant Response Elements (ARE) (AID 2282992);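 as to AC50: reporter mRNA level measured by RT-PCR and capillary electrophoresis fluorescence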
experimental conditions: HepG2 Attagene ARE/NRF2 reporter, transcription factor activity; actives raise or lower the signal
Active and inactive are the calls of the source. The calls were made as follows: active = hit-call score of the fitted dose curve at least 0.9, where 1 is the maximum; inactive = score below 0.9.

{"compound": "C=CCOC(=O)c1ccc(C(=O)OCC=C)c(C(=O)OCC=C)c1", "AC50": "36.1 µM (active)"}
{"compound": "CC(C=O)c1ccccc1 (centres undefined)", "AC50": "inactive"}
{"compound": "COC(=O)c1ccccc1C", "AC50": "inactive"}
{"compound": "CC1CCC(=O)C1=O (centres undefined)", "AC50": "inactive"}
{"compound": "CCCC(C)C(=O)OCC (centres undefined)", "AC50": "inactive"}
{"compound": "CC(Cl)COP(=O)(OCC(C)Cl)OCC(C)Cl (centres undefined)", "AC50": "inactive"}
{"compound": "Nc1ccc(Cl)c(N)c1", "AC50": "inactive"}
{"compound": "CCc1cccc(CC)c1", "AC50": "inactive"}
{"compound": "C=C(C)C(=O)OCC(O)COc1ccc(C(C)(C)c2ccc(OCC(O)COC(=O)C(=C)C)cc2)cc1 (centres undefined)", "AC50": "26.5 µM (active)"}
{"compound": "Nc1ccc(C(=O)OCCCOC(=O)c2ccc(N)cc2)cc1", "AC50": "inactive"}
{"compound": "CC1=CCC2CC1C2(C)C (centres undefined)", "AC50": "inactive"}
{"compound": "CC(C)c1ccc(O)c(C(C)C)c1", "AC50": "24.6 µM (active)"}
{"compound": "O=C(C=Cc1ccccc1)OCCc1ccccc1", "AC50": "20.4 µM (active)"}
{"compound": "O=C1CCCN1C1CCCCC1", "AC50": "inactive"}
{"compound": "CCCCCCO", "AC50": "inactive"}
{"compound": "O=C1CCCCCCCCCCC1", "AC50": "inactive"}
{"compound": "CCCCCCCO", "AC50": "inactive"}
{"compound": "CCc1cccc(C)c1N(C(=O)CS(=O)(=O)O)C(C)COC (centres undefined)", "AC50": "inactive"}
{"compound": "O=C(OCc1ccccc1)c1ccc(O)cc1", "AC50": "64.4 µM (active)"}
